Quick reference: apparent KD of MS2 coat protein of the listed items.
# Test system: MS2 coat protein
# Assay overview: apparent KD of MS2 coat protein; higher = weaker reporter binding
# Condition label: Eterna round: R107; input ligand: theophylline 20 uM

Sequence string	Display unit	apparent KD of MS2 coat protein
GAACAUAAGGAUAGUAUAAUAACUACAGAAGGAGCGUCAGGAAGGACAGGUAGGUCGCUGGAAGACAUGAGGAUCACCCAUGUUU [#03 Same State - Arginine A]	nM	28.8
ACCUGCGUUUGAUUCUAUCUGACGCAGGUUCGAGGACCGGUACGGCCGCCACUCGGACAUGAGGAUCACCCAUGUUUGACAUGGG [#03 Exclusion Tryptophan A]	nM	608
AUCGUACCUGAGGAUACCAGCAUGUGAUCAUAACAUGAGGAUCACCCAUGUAAUCAGUGAUGCCCUUGGCAGCUUGGUCGGUACA [Same State - Theophylline B (Freestyle 10)]	nM	74.3
UACUUGCUGACGGCCGCCACUAGAACAUGAGGAUCACCCAUGUAUGGCGGCCGUCAUGGGUGGACUAGGACCGGGUCAGCAAGAU [(Trp1)-(Ms2)-(T)'-(M)'-(Trp2)_Design7]	nM	14.6
GGAGCUACGUCGGCCGCCACUAGCGGUAAUUACGUGUACAUGAGGAUCACCCAUGUAAUAUGGACUAGGACCGGGACGUAGCUCC [Salmon]	nM	21.8

Attribution: the supplement of paper PMC9170038
